TARGET OF ASSAY: MERTK (UniProt Q12866)
Sequence (Q12866 whole entry, looked up): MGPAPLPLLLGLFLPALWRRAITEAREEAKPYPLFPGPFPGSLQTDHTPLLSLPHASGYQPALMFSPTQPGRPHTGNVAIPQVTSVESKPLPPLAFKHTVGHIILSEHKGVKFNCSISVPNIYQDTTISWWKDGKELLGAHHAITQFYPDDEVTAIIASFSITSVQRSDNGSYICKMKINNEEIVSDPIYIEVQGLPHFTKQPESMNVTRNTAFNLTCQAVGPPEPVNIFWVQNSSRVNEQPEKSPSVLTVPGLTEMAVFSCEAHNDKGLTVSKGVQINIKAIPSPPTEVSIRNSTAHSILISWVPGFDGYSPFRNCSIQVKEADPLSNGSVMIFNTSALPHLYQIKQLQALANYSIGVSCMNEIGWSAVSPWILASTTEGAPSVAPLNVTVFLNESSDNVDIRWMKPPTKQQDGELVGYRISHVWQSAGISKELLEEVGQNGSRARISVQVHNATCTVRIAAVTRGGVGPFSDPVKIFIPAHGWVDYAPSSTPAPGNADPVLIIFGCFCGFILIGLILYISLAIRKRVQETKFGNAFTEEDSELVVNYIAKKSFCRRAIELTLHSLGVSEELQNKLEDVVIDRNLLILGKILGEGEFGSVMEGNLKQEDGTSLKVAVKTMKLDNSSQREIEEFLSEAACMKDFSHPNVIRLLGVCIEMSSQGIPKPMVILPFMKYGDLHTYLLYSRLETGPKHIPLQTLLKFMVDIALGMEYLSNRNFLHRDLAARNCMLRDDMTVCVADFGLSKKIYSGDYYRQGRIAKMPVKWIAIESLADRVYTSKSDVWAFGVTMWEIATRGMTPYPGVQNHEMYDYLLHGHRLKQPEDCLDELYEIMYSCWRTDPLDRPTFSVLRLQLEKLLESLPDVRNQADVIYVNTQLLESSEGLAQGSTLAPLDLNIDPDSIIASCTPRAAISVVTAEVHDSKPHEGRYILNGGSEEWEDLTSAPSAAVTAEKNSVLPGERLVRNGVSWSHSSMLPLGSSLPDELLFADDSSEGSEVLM
MEASUREMENT PROTOCOL: phosphorylation enrichment, bacterial display (enrichment ratio); higher = better substrate or ligand; peptides without Tyr show the background;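 note: 11-residue human phosphosite peptides and single-mutation variants displayed on the E. coli surface, counted by deep sequencing, each peptide's frequency after selection divided by its frequency in the unselected input library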;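 note: frequency after pTyr selection over input frequency; kinase dosed for 20-30% of maximal phosphorylation in three min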
MEASUREMENT NAME: phosphorylation enrichment
One number for each entry.

Worked cases, answers included:
INSERT INTO results (seq_string, observed_measurement) VALUES
  ('KALKQYRAGPS [DDX27_Y763]', 0.391),
  ('GLDSSYLLRDS [SH2D1A_Y29_G27S]', 0.422),
  ('DDDPEDRKFLE [UPF3B_Y160_Y160D]', 0.541),
  ('LEVPLYKNGVK [CPS1_Y1069_A1065E]', 0.625),
  ('IKNFKYGIEEH [GJA1_Y137_K134N]', 0.383);

Look up phosphorylation enrichment for the entries below, preserving their order.
1. MAFDRYAAICS [OR8H2_Y123_H120Y_YF]
2. LGIDRYHAIVF [NPSR1_Y147_S143G_YF]
3. FHKALYTVRTF [PDE6C_Y266_S270T_YF]
4. RRVLVYRGRGA [QDPR_Y16_G17R]
5. FCVVRYCWLRR [MPZ_Y181_Y177C]

0.889
1.52
0.523
0.708
0.656

Look up phosphorylation enrichment for the entries below, preserving their order.
1. KLIMECLPFGS [JAK2_Y931_Y931C_YF]
2. EQKKFYNAMKK [SCN5A_Y1495_YF]
3. TVFSDYLHPQY [CCPG1_Y569]

1. 0.521
2. 0.379
3. 0.417

* * *

TARGET OF ASSAY: Fes (UniProt P07332)
Sequence (P07332 whole entry, looked up): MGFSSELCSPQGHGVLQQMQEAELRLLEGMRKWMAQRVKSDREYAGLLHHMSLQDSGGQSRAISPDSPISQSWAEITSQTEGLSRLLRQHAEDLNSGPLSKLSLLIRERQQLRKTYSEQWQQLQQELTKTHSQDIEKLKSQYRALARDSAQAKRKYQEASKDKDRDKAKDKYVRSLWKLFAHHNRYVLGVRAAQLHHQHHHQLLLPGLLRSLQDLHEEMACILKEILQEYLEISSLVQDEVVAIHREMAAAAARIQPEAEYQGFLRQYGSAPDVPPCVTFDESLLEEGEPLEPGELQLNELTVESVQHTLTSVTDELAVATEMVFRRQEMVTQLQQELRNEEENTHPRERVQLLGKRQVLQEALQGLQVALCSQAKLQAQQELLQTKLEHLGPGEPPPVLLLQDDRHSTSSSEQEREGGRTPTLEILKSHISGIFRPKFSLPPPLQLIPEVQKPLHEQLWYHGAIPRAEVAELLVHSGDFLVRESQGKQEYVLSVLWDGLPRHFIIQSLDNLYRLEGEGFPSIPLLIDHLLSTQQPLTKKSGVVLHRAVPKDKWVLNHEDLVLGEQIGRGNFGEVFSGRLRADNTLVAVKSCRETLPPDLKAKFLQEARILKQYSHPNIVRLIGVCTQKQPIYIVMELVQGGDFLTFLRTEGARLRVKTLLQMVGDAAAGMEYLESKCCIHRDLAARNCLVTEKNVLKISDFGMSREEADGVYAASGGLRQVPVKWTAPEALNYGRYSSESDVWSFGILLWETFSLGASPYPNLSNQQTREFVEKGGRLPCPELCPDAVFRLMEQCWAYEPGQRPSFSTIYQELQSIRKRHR
MEASUREMENT PROTOCOL: phosphorylation enrichment, bacterial display (enrichment ratio); higher = better substrate or ligand; peptides without Tyr show the background
Consider the following sequences; for each one, report its phosphorylation enrichment.
Give bare numbers.

INSERT INTO assay_data (seq_string, target_of_assay, measurement_name, observed_measurement) VALUES
  ('PLTKVYVVEGS [ZMPSTE24_Y253]', 'Fes (UniProt P07332)', 'phosphorylation enrichment', 0.952),
  ('LLREWYLPDPF [SIX3_Y225_Q227P_YF]', 'Fes (UniProt P07332)', 'phosphorylation enrichment', 2.2),
  ('TFEFKYPEGSS [TGM4_Y440_YF]', 'Fes (UniProt P07332)', 'phosphorylation enrichment', 1.18),
  ('VLPIDYYFPPQ [AR_Y552]', 'Fes (UniProt P07332)', 'phosphorylation enrichment', 1.08),
  ('EKNANYKEGTF [CLRN1_Y171_I168N_YF]', 'Fes (UniProt P07332)', 'phosphorylation enrichment', 0.757),
  ('DPADRYLIEQC [CDKL5_Y286_T288I]', 'Fes (UniProt P07332)', 'phosphorylation enrichment', 1.32),
  ('VVLVSYVPFSQ [SH2B1_Y624_S627F]', 'Fes (UniProt P07332)', 'phosphorylation enrichment', 1.37),
  ('PFRFIYMAVQH [PTPN11_Y515_Q510P_YF]', 'Fes (UniProt P07332)', 'phosphorylation enrichment', 1.01),
  ('CTTIHYNYMWN [TP53_Y234_C238W]', 'Fes (UniProt P07332)', 'phosphorylation enrichment', 1.32),
  ('KDQPDYKYQPR [SOX9_Y172_H169Q]', 'Fes (UniProt P07332)', 'phosphorylation enrichment', 0.643);

Look up phosphorylation enrichment for the entries below, preserving their order.
1. KVNKIYFPDFI [LIG3_Y767_YF]
2. RRIHSYRGRLW [VHL_Y112_H115R]
3. KGEDFYCVTFH [FHL1_Y149_C153Y_YF]
4. QRALLYEDALY [UNC13D_Y56]

0.855
0.771
1.48
2.05
